Molecular target: pooled human IgG (human IgG1,2,3 and 4)
ASSAY_READOUT: Enzyme Activity Endpoint Assay: Fab′2

1. PRT-90 (protein) MANQEIRYSEETPYHVTSVWTKGVTPPAKFTQGEDVFHAPYVANQGWYDITKTFNGKDDLLCGAATAGNMLHWWFDQNKEKIEAYLKKHPEKQKIMFGDQELLDVRKVINTKDDQTNSELFNYFRDKAFPGLSARRLGVMPDLVLDMFINGYYLNVYKTQTTDVNRTYQEKDRRGGIFDAVFTRGDQSKLLTSRHDFKEKTLKEISDLIKKELTEGKALGLSHTYANVRINHVINLWGADFDSNGNLKAIYVTDSDSNASIGMKKYFVGVNSAGKVAISAKEIKEDNIGAQVLGLFTLSTGQDIWNQTN ... 44 ng/µL
